B1: CCDC6 (parent)
chain: TLFKKIQALQKEKETLAVNYEKEE

Variants of: B1
Test: protein stability index of a GFP-peptide fusion (GPS, HEK-293T) (PSI 1-6); higher = more stable;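 also: lentivirally expressed fusions sorted by FACS into six bins by GFP to DsRed ratio, PSI derived from sequencing read proportions per bin multiplied by bin number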
Conditions: c terminus: a fixed tail appended
Measurement Label: protein stability index

* TLFKKIQALQKEKTTLAVNYEKEE [E14T] | 2.55
* TLFKKIQALQKEKWTLAVNYEKEE [E14W] | 2.03
* TLFKKIQALQKEKPTLAVNYEKEE [E14P] | 2.64
* TLFKKAQALQKEKETLAVNYEKEE [I6A] | 4.59
* TLFKKIQALQKEKETLAVNYEKEL [E24L] | 2.55
* TLFKKYQALQKEKETLAVNYEKEE [I6Y] | 3.93
* TLFKKIQALQKEKETLAVNIEKEE [Y20I] | 2.96
* TLLKKIQALQKEKETLAVNYEKEE [F3L] | 3.08
* TLFKYIQALQKEKETLAVNYEKEE [K5Y] | 2.15
* THFKKIQALQKEKETLAVNYEKEE [L2H] | 4.96
* TLFKKIQAEQKEKETLAVNYEKEE [L9E] | 4.37
* TLFKKIQALQKVKETLAVNYEKEE [E12V] | 2.52
* TLFKKIQALQKEKETCAVNYEKEE [L16C] | 3.05
* TLFKKIQALKKEKETLAVNYEKEE [Q10K] | 3.08
* TLFKKIQALQKEKETLAVNYEYEE [K22Y] | 2.64
* TLFKKIQALQKEKETLAVNYEKEP [E24P] | 2.53
* TLFKKIQALQKEKITLAVNYEKEE [E14I] | 2.25
* TLFKKIQALFKEKETLAVNYEKEE [Q10F] | 2.2
* TLFKIIQALQKEKETLAVNYEKEE [K5I] | 1.79
* TLFKWIQALQKEKETLAVNYEKEE [K5W] | 3.67
* TLFKKIQAYQKEKETLAVNYEKEE [L9Y] | 3.23
* TLFKKIQALQKNKETLAVNYEKEE [E12N] | 3.09
* TLFKKIQALQKEKETLAVNYEVEE [K22V] | 2.94
